Cited source: patent US20250170248A1

Consider the following molecules; for each one, report its DC50.
target: SMARCA4 (Homo sapiens, UniProt P51532); construct: SMARCA2/SMARCA4 protein degradation selectivity in MV4-11 cells; endogenous in cells; host or cells: MV4-11; assay: SMARCA4 Western blot degradation in MV4-11 cells; assay type: cell-based; conditions: MV4-11 cells, 24 h; read-out: SMARCA4 MSD MV411 degradation 24 h: Mean external-Abs DC50
Sequence (P51532 whole entry): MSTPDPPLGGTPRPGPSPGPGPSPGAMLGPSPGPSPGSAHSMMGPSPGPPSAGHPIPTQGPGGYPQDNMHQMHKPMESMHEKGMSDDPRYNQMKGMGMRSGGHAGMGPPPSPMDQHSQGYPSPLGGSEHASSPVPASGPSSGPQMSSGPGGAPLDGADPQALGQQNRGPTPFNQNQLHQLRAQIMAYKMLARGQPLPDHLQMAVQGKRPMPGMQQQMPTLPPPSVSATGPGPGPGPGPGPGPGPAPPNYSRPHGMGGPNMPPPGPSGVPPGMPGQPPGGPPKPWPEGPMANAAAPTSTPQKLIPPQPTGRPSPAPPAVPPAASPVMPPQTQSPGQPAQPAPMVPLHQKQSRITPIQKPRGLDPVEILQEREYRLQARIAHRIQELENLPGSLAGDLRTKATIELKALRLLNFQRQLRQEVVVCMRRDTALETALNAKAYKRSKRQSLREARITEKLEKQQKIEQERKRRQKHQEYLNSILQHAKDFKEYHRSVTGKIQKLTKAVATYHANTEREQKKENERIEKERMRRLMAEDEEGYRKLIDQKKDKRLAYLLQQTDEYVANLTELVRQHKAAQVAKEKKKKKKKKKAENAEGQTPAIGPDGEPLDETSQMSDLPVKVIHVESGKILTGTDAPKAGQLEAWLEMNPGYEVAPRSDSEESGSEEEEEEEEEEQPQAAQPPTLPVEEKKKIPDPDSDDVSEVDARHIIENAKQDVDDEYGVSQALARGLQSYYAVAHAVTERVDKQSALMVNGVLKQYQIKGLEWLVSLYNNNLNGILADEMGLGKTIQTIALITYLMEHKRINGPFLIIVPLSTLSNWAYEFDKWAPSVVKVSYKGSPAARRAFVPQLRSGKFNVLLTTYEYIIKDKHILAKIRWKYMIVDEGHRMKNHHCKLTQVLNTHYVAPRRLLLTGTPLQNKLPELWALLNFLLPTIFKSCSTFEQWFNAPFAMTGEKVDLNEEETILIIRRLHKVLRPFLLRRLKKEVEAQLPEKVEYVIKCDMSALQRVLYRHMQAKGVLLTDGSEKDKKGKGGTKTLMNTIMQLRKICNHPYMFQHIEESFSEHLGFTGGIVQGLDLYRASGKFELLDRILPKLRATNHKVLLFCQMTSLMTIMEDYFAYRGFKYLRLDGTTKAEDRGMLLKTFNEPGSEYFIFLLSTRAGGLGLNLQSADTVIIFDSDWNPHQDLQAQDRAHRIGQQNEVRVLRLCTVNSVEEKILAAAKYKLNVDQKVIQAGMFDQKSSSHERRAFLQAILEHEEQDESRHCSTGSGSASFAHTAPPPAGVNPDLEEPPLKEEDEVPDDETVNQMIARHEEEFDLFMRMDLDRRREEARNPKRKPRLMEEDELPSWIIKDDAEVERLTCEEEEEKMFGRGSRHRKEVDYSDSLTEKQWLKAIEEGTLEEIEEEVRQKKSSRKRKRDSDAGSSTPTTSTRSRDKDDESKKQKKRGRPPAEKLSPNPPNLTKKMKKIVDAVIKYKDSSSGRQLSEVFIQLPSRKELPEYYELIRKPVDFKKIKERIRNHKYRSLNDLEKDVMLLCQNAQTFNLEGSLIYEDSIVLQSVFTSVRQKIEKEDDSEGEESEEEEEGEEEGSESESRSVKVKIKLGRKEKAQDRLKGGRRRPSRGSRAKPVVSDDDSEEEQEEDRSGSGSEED

{"MOLECULE": "C#Cc1ccc([C@H](C)NC(=O)[C@@H]2C[C@@H](O)CN2C(=O)[C@@H](NC(=O)[C@H]2CCC3(CC2)C[C@H](N2CCC(c4cnc(N5CCN6c7cc(-c8ccccc8O)nnc7NC[C@H]6C5)nc4)CC2)C3)C(C)(C)C)cc1 (single isomer, unassigned) [I-56]", "DC50": "> 100 nM"}
{"MOLECULE": "C#Cc1ccc(CNC(=O)[C@@H]2C[C@@H](O)CN2C(=O)[C@@H](NC(=O)[C@H]2CCC3(CC2)C[C@H](N2CCN(c4cnc(N5CCN6c7cc(-c8ccccc8O)nnc7NC[C@H]6C5)nc4)CC2)C3)C(C)(C)CCO)c(Cl)c1 (single isomer, unassigned) [I-311]", "DC50": "> 100 nM"}
{"MOLECULE": "C#Cc1ccc(CNC(=O)[C@@H]2C[C@@H](O)CN2C(=O)[C@@H](NC(=O)[C@H]2CCC3(CC2)C[C@H](N2CCC(c4ccc(N5CCN6c7cc(-c8ccccc8O)nnc7NC[C@H]6C5)nc4)CC2)C3)C(C)(C)C)cc1 (single isomer, unassigned) [I-155]", "DC50": "> 100 nM"}

# return DC50 for each item in the list
1. Cc1ncsc1-c1ccc(CNC(=O)[C@@H]2C[C@@H](O)CN2C(=O)[C@@H](NC(=O)C2CC3(C2)CC(N2CCC(N4CCC(N5CCN6c7cc(-c8ccccc8O)nnc7NC[C@H]6C5)CC4)CC2)C3)C(C)(C)C)cc1 (stereo partly drawn)
2. Cc1ncsc1-c1ccc(CNC(=O)[C@@H]2C[C@@H](O)CN2C(=O)[C@@H](NC(=O)[C@H]2CC3(C2)C[C@H](N2CCN(c4cnc(N5CCN6c7cc(-c8ccccc8O)nnc7NC[C@H]6C5)nc4)CC2)C3)C(C)(C)C)cc1 (stereo partly drawn) [I-19]
3. Cc1ncsc1-c1ccc(CNC(=O)[C@@H]2C[C@@H](O)CN2C(=O)[C@@H](NC(=O)N2CC3(CC(N4CCN(c5ccnc(N6CCN7c8cc(-c9ccccc9O)nnc8NC[C@H]7C6)n5)CC4)C3)C2)C(C)(C)C)cc1

Key:
1: > 100 nM; 2: 10 to 100 nM; 3: 1 to 10 nM

====

Consider the following compounds; for each one, report its Dmax.
molecular target: SMARCA4 (Homo sapiens, UniProt P51532); construct: SMARCA2/SMARCA4 protein degradation selectivity in MV4-11 cells; endogenous in cells; host or cells: MV4-11; test: SMARCA4 Western blot degradation in MV4-11 cells; assay type: cell-based; conditions: MV4-11, MV4-11 cells, 24 h; read-out: SMARCA4 MSD MV411 degradation 24 h: average Dmax %

{"COMPOUND": "C#Cc1ccc(CNC(=O)[C@@H]2C[C@@H](O)CN2C(=O)[C@@H](NC(=O)[C@H]2CC[C@H](c3ccc(-c4cnc(N5CCN6c7cc(-c8ccccc8O)nnc7NC[C@H]6C5)nc4)cc3)CC2)C(C)(C)C)cc1 [I-23]", "TGT": "SMARCA4 (Homo sapiens, UniProt P51532)", "Dmax": "< 50%"}
{"COMPOUND": "C#Cc1ccc([C@H](C)NC(=O)[C@@H]2C[C@@H](O)CN2C(=O)[C@@H](NC(=O)N2CC3(CC(N4CCC(c5cnc(N6CCc7[nH]c8nnc(-c9ccccc9O)cc8c7[C@H]6CO)nc5)CC4)C3)C2)C(C)(C)C)cc1 [I-321]", "TGT": "SMARCA4 (Homo sapiens, UniProt P51532)", "Dmax": "< 50%"}

# return Dmax for each item in the list
1. Cc1ncsc1-c1ccc(CNC(=O)[C@@H]2C[C@@H](O)CN2C(=O)[C@@H](NC(=O)C2(F)CC2)C(C)(C)C)c(O[C@H]2CC[C@H](N3CCC(c4cnc(N5CCc6[nH]c7nnc(-c8ccccc8O)cc7c6[C@H]5C)nc4)CC3)CC2)c1 (single isomer, unassigned) [I-30]
2. Cc1ncsc1-c1ccc(CNC(=O)[C@@H]2C[C@@H](O)CN2C(=O)[C@@H](NC(=O)[C@H]2CC3(C2)C[C@H](N2CCC(c4ccnc(N5CCN6c7cc(-c8ccccc8O)nnc7NC[C@H]6C5)n4)CC2)C3)C(C)(C)C)cc1 (single isomer, unassigned) [I-5]
3. C#Cc1ccc(CNC(=O)[C@@H]2C[C@@H](O)CN2C(=O)[C@@H](NC(=O)N2CC3(CC(N4CCC(c5cnc(N6CCc7[nH]c8nnc(-c9ccccc9O)cc8c7[C@H]6C)nc5)CC4)C3)C2)C(C)(C)C)cc1Cl [I-309]
4. Cc1ncsc1-c1ccc(CNC(=O)[C@@H]2C[C@@H](O)CN2C(=O)C(c2cc(OC[C@H]3CC[C@H](N4CCC(c5cnc(N6CCc7[nH]c8nnc(-c9ccccc9O)cc8c7[C@H]6C)nc5)CC4)CC3)no2)C(C)C)cc1 (single isomer, unassigned) [I-1]
5. C#Cc1ccc(CNC(=O)[C@@H]2C[C@@H](O)CN2C(=O)[C@@H](NC(=O)N2CC3(CC(N4CCC(c5cnc(N6CCc7[nH]c8nnc(-c9ccccc9O)cc8c7[C@H]6C)nc5)CC4)C3)C2)C(C)(C)C)cc1OC [I-319]

Key:
["> 90%", "< 50%", "70 to 90%", "> 90%", "50 to 70%"]

====

molecular target: SMARCA2 (Homo sapiens, UniProt P51531); test: SMARCA2 Western blot degradation in MV4-11 cells; assay type: cell-based; set-up: SMARCA2/SMARCA4 protein degradation selectivity in MV4-11 cells; endogenous in cells; host or cells: MV4-11; details: MV4-11 cells, 24 h; read-out: SMARCA2 MSD MV411 degradation 24 h: Mean external-Abs DC50
Sequence (P51531 whole entry): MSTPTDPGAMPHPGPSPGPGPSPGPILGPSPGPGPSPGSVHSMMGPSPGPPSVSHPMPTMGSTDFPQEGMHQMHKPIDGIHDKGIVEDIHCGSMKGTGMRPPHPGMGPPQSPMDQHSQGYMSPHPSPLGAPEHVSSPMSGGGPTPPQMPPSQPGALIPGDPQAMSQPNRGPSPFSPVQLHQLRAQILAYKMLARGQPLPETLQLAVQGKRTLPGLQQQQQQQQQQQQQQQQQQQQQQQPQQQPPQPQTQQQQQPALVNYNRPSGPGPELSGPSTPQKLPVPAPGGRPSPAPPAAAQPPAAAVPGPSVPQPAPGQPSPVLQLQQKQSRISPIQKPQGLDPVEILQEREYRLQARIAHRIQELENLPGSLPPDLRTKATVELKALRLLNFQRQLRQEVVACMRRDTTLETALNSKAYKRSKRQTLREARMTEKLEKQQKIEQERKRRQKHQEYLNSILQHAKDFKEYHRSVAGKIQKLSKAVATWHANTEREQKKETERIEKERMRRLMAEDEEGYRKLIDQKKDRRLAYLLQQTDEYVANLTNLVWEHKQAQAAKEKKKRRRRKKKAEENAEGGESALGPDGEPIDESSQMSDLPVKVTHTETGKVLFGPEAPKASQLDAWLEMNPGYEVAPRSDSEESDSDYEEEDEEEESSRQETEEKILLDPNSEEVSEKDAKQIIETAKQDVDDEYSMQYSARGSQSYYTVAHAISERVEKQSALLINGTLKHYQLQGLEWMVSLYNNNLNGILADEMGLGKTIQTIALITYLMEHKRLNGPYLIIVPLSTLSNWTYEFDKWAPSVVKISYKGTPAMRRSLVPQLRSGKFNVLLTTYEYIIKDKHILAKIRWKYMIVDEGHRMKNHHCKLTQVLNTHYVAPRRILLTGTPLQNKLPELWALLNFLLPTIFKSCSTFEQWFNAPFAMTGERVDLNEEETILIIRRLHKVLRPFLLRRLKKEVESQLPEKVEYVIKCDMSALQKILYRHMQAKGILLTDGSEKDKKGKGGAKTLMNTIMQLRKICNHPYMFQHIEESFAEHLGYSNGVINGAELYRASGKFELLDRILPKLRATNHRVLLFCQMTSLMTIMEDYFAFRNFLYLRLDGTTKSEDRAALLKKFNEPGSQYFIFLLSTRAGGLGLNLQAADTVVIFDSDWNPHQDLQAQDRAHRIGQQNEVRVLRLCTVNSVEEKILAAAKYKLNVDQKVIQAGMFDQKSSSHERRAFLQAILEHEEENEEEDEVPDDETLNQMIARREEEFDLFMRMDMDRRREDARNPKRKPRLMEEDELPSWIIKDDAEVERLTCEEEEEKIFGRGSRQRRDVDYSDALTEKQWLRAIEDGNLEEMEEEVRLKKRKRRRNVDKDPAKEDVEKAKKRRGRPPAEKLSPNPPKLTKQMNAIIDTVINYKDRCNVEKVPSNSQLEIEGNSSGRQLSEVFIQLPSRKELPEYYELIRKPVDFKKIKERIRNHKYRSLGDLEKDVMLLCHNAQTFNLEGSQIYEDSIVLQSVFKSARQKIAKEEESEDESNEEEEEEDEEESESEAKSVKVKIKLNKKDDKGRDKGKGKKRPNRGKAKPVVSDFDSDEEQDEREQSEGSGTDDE
TEST_READOUT: DC50

Examples from the recorded data:
{"MOLECULE": "COc1cc(C(C(=O)N2C[C@H](O)C[C@H]2C(=O)NCC#Cc2ccccc2OCCCCN2CCC(c3cnc(N4CCN5c6cc(-c7ccccc7O)nnc6NC[C@H]5C4)nc3)CC2)C(C)C)on1 (some centres unmarked)", "TGT": "SMARCA2 (Homo sapiens, UniProt P51531)", "DC50": "< 1 nM"}
{"MOLECULE": "C#Cc1ccc(CNC(=O)[C@@H]2C[C@@H](O)CN2C(=O)C(c2cc(N3CCC(CN4CCC(N5CCC(N6CCN7c8cc(-c9ccccc9O)nnc8NC[C@H]7C6)CC5)CC4)CC3)no2)C(C)C)c(Cl)c1 (some centres unmarked)", "TGT": "SMARCA2 (Homo sapiens, UniProt P51531)", "DC50": "1 to 10 nM"}
{"MOLECULE": "C#Cc1ccc(CNC(=O)[C@@H]2C[C@@H](O)CN2C(=O)[C@@H](NC(=O)N2CC3(CC(N4C[C@H]5CN(c6cnc(N7CCc8[nH]c9nnc(-c%10ccccc%10O)cc9c8[C@H]7C)nc6)C[C@H]5C4)C3)C2)C(C)(C)C)cc1", "TGT": "SMARCA2 (Homo sapiens, UniProt P51531)", "DC50": "10 to 100 nM"}
{"MOLECULE": "Cc1ncsc1-c1ccc(CNC(=O)[C@@H]2C[C@@H](O)CN2C(=O)[C@@H](NC(=O)[C@H]2CCC3(CC2)C[C@H](N2CCC(c4ccc(N5CCN6c7cc(-c8ccccc8O)nnc7NC[C@H]6C5)nc4)CC2)C3)C(C)(C)C)cc1 (some centres unmarked) [I-148]", "TGT": "SMARCA2 (Homo sapiens, UniProt P51531)", "DC50": "10 to 100 nM"}
{"MOLECULE": "C#Cc1ccc(CNC(=O)[C@@H]2C[C@@H](O)CN2C(=O)[C@@H](NC(=O)[C@H]2CC3(C2)C[C@H](N2CCC(N4CCC(N5CCN6c7cc(-c8ccccc8O)nnc7NC[C@H]6C5)CC4)CC2)C3)C(C)(C)C)c(OC)c1 (single isomer, unassigned) [I-232]", "TGT": "SMARCA2 (Homo sapiens, UniProt P51531)", "DC50": "1 to 10 nM"}

# return DC50 for each item in the list
1. C#Cc1ccc(CNC(=O)[C@@H]2C[C@@H](O)CN2C(=O)[C@@H](NC(=O)[C@H]2CCC3(CC2)C[C@H](N2CCC(c4ccc(N5CCN6c7cc(-c8ccccc8O)nnc7NC[C@H]6C5)nc4)CC2)C3)C(C)(C)C)cc1 (single isomer, unassigned) [I-156]
2. C#Cc1ccc(CNC(=O)[C@@H]2C[C@@H](O)CN2C(=O)[C@@H](NC(=O)[C@H]2CCC3(CC2)C[C@H](N2CCC(c4cnc(N5CCN6c7cc(-c8ccccc8O)nnc7NC[C@H]6C5)nc4)CC2)C3)C(C)(C)C)c(F)c1 (single isomer, unassigned) [I-97]

Key:
1: 1 to 10 nM; 2: 1 to 10 nM

Exercise: What does the record list as DC50 for Cc1ncsc1-c1ccc(CNC(=O)[C@@H]2C[C@@H](O)CN2C(=O)[C@@H](NC(=O)C2(F)CC2)C(C)(C)C)c(OCCCCN2CCC(c3ccnc(N4CCN5c6cc(-c7ccccc7O)nnc6NC[C@H]5C4)n3)CC2)c1 (single isomer, unassigned) ?
Key: < 1 nM
